Please go through the items and note down their cell viability.
System: KU-812
Assay: cell viability (% survival relative to DMSO control, bortezomib = 0%); higher = less cytotoxic
Settings: 1000 nM; 72 h
Dear colleague, please send the value followed by its unit.

O=C1c2cc([N+](=O)[O-])ccc2-n2c1nc1ccccc1c2=O; 53.4%
O=C(O)CCCCC(CCSCc1ccccc1)SCc1ccccc1 (centres undefined); 105%
Cc1c(-c2ccc(-c3ccccc3F)cc2)nc2ccc(F)cc2c1C(=O)O; 100%

Now look at this entry.
Query: Given O=C1O/C(=C/Br)CCC1c1cccc2ccccc12 (centres undefined) , respond with its cell viability.
Reply: 86.1%
